Target: T1, Human IL2Rγ extracellular domain expressed with a C-terminal myc-myc-hexahistidine tag (human)
T1 construct: also called hIL-2Rg-MMH; hIL-2RG-MMH
T1 chain: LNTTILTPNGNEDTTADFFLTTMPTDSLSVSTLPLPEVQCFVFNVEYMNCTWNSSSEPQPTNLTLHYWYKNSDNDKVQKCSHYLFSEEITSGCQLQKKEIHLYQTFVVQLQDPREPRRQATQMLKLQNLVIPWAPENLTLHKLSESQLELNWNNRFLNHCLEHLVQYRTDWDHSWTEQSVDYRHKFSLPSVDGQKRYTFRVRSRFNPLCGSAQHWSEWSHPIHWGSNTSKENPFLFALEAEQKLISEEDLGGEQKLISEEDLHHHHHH
Test: SPR, captured mAb, 25C, dissociation pH 6.0
Returns: string. Value is satisfied if measured t1/2 is below 20 min, and not satisfied if it is greater than or equal to it.

**Q:** Does this binder meet the criterion t1/2 < 20 min? H4H12889P (antibody, human IgG4 S228P, kappa, V domains shown, anti-IL2Rgamma mAb expressed with human IgG4 Fc; also called REGN7257) VH: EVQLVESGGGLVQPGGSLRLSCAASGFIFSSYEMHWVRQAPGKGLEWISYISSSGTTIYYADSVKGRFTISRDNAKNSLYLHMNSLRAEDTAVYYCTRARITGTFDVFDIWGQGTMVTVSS VL: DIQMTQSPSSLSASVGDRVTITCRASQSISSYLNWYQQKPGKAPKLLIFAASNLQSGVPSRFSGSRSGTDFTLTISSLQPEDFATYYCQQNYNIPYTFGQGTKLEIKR
**A:** not satisfied

**Q:** Does this binder meet the criterion t1/2 < 20 min? H4H13538P (antibody, human IgG4 S228P, kappa, V domains shown, anti-IL2Rgamma mAb expressed with human IgG4 Fc) VH: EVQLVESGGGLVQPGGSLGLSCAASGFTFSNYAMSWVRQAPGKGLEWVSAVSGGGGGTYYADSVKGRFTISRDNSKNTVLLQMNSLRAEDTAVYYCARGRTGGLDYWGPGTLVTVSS VL: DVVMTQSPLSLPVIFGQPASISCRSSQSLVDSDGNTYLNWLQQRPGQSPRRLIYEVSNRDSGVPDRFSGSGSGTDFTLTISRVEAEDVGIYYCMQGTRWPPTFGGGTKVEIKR
**A:** not satisfied

**Q:** Does this binder meet the criterion t1/2 < 20 min? H4H12900P (antibody, human IgG4 S228P, kappa, V domains shown, anti-IL2Rgamma mAb expressed with human IgG4 Fc) VH: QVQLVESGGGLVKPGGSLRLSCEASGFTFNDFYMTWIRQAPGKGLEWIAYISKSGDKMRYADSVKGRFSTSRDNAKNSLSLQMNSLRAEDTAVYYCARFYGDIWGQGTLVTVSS VL: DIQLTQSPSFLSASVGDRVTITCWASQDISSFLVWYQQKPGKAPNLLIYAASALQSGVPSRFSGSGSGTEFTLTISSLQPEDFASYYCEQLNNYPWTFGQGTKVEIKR
**A:** satisfied

**Q:** Does this binder meet the criterion t1/2 < 20 min? H4H12884P (antibody, human IgG4 S228P, kappa, V domains shown, anti-IL2Rgamma mAb expressed with human IgG4 Fc) VH: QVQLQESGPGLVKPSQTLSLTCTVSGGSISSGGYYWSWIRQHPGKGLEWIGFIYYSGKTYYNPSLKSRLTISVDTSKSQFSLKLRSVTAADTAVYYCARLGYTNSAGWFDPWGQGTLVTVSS VL: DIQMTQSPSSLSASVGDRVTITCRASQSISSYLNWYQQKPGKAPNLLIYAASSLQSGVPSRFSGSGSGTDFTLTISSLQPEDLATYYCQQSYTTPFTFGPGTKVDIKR
**A:** satisfied

**Q:** Does this binder meet the criterion t1/2 < 20 min? H4H12858P (antibody, human IgG4 S228P, kappa, V domains shown, anti-IL2Rgamma mAb expressed with human IgG4 Fc; also called REGN9433) VH: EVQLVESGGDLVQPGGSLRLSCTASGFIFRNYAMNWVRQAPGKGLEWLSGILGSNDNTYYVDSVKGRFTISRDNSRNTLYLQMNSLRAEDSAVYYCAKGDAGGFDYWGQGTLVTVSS VL: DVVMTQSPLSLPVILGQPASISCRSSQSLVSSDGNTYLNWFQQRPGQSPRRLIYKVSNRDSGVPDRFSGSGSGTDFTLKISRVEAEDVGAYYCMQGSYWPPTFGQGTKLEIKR
**A:** not satisfied

**Q:** Does this binder meet the criterion t1/2 < 20 min? H4H12863P (antibody, human IgG4 S228P, kappa, V domains shown, anti-IL2Rgamma mAb expressed with human IgG4 Fc) VH: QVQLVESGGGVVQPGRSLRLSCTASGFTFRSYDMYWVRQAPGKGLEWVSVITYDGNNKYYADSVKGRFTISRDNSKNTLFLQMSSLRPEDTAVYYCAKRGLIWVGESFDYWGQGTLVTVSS VL: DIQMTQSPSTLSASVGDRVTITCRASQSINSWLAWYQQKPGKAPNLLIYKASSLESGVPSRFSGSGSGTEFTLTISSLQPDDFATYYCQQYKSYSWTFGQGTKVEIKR
**A:** satisfied

The measured values listed here are drawn from patent US20200247894A1.
